- Test system: 874868-142-R-J2-PDC complex spheroids, growth % test/control;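 also: spheroids exposed to the compounds for 7 days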
- experiment: Anticancer human tumor 874868-142-R-J2-PDC patient-derived head and neck squamous carcinoma cell line growth inhibition [CLK]
- study.conditions: second compound 0.0316 µM; first compound 1 µM; stronger effect = lower value
Binarize viability, T/C at 60%; below is Criterion met, at or above is Criterion not met.

Criterion: viability, T/C strictly below 60%. Is it met by C=C(F)C(=O)N1CCN(c2nc(OCC3CCCN3C)nc3c2CCN(c2cccc4cccc(Cl)c24)C3)CC1CC#N (stereo not given) + CN1CCN(c2cc(C(=O)Nc3cc4cc(-c5cnn(C)c5)ccc4cn3)ccn2)CC1 ? Criterion not met

Criterion: viability, T/C strictly below 60%. Is it met by O=C(c1cc(Cc2n[nH]c(=O)c3ccccc23)ccc1F)N1CCN(C(=O)C2CC2)CC1 + CNC(=O)c1ccc(Nc2nc(OC3CCCC3)c3c(-c4ccc5nc(C)oc5c4)c[nH]c3n2)c(OC)c1 ? Criterion not met

Criterion: viability, T/C strictly below 60%. Is it met by Nc1ccn(C2OC(CO)C(O)C2(F)F)c(=O)n1 (stereo not given) + CNC(=O)c1ccc(Nc2nc(OC3CCCC3)c3c(-c4ccc5nc(C)oc5c4)c[nH]c3n2)c(OC)c1 ? Criterion met

Criterion: viability, T/C strictly below 60%. Is it met by COc1ccc([C@@H](O)c2cc(-c3ncnc4cc(N5CCOCC5)ccc34)c(F)cc2Cl)nn1 + CNC(=O)c1ccc(Nc2nc(OC3CCCC3)c3c(-c4ccc5nc(C)oc5c4)c[nH]c3n2)c(OC)c1 ? Criterion not met

Criterion: viability, T/C strictly below 60%. Is it met by Nc1ccccc1NC(=O)c1ccc(CNC(=O)OCc2cccnc2)cc1 + CNC(=O)c1ccc(Nc2nc(OC3CCCC3)c3c(-c4ccc5nc(C)oc5c4)c[nH]c3n2)c(OC)c1 ? Criterion not met

Criterion: viability, T/C strictly below 60%. Is it met by COc1cccc2c1C(=O)c1c(O)c3c(c(O)c1C2=O)CC(O)(C(=O)CO)CC3OC1CC(N)C(O)C(C)O1 (stereo not given) + CNC(=O)c1ccc(Nc2nc(OC3CCCC3)c3c(-c4ccc5nc(C)oc5c4)c[nH]c3n2)c(OC)c1 ? Criterion met

Criterion: viability, T/C strictly below 60%. Is it met by CC1(C)CCC(CN2CCN(c3ccc(C(=O)NS(=O)(=O)c4ccc(NCC5CCOCC5)c([N+](=O)[O-])c4)c(Oc4cnc5[nH]ccc5c4)c3)CC2)=C(c2ccc(Cl)cc2)C1 + CN1CCN(c2cc(C(=O)Nc3cc4cc(-c5cnn(C)c5)ccc4cn3)ccn2)CC1 ? Criterion not met

Criterion: viability, T/C strictly below 60%. Is it met by C#Cc1c(F)ccc2cc(O)cc(-c3ncc4c(N5CC6CCC(C5)N6)nc(OCC56CCCN5CC(F)C6)nc4c3F)c12 (stereo not given) + CNC(=O)c1ccc(Nc2nc(OC3CCCC3)c3c(-c4ccc5nc(C)oc5c4)c[nH]c3n2)c(OC)c1 ? Criterion not met

Criterion: viability, T/C strictly below 60%. Is it met by Nc1ccn(C2OC(CO)C(O)C2(F)F)c(=O)n1 (stereo not given) + CN1CCN(c2cc(C(=O)Nc3cc4cc(-c5cnn(C)c5)ccc4cn3)ccn2)CC1 ? Criterion met

Criterion: viability, T/C strictly below 60%. Is it met by Nc1ccccc1NC(=O)c1ccc(CNC(=O)OCc2cccnc2)cc1 + CN1CCN(c2cc(C(=O)Nc3cc4cc(-c5cnn(C)c5)ccc4cn3)ccn2)CC1 ? Criterion not met

Criterion: viability, T/C strictly below 60%. Is it met by O=C(c1cc(Cc2n[nH]c(=O)c3ccccc23)ccc1F)N1CCN(C(=O)C2CC2)CC1 + CN1CCN(c2cc(C(=O)Nc3cc4cc(-c5cnn(C)c5)ccc4cn3)ccn2)CC1 ? Criterion not met

Criterion: viability, T/C strictly below 60%. Is it met by CC(CO)NC(=O)c1cc(-c2ccc(Cl)cc2)nn(-c2cnn(C)c2)c1=O (stereo not given) + CN1CCN(c2cc(C(=O)Nc3cc4cc(-c5cnn(C)c5)ccc4cn3)ccn2)CC1 ? Criterion not met

Criterion: viability, T/C strictly below 60%. Is it met by CC1COCCN1c1cc(C2(S(C)(=N)=O)CC2)nc(-c2ccnc3[nH]ccc23)n1 (stereo not given) + CNC(=O)c1ccc(Nc2nc(OC3CCCC3)c3c(-c4ccc5nc(C)oc5c4)c[nH]c3n2)c(OC)c1 ? Criterion not met

Criterion: viability, T/C strictly below 60%. Is it met by CC1COCCN1c1cc(C2(S(C)(=N)=O)CC2)nc(-c2ccnc3[nH]ccc23)n1 (stereo not given) + CN1CCN(c2cc(C(=O)Nc3cc4cc(-c5cnn(C)c5)ccc4cn3)ccn2)CC1 ? Criterion not met

Criterion: viability, T/C strictly below 60%. Is it met by CCc1c2c(nc3ccc(O)cc13)-c1cc3c(c(=O)n1C2)COC(=O)[C@]3(O)CC + CNC(=O)c1ccc(Nc2nc(OC3CCCC3)c3c(-c4ccc5nc(C)oc5c4)c[nH]c3n2)c(OC)c1 ? Criterion met

Criterion: viability, T/C strictly below 60%. Is it met by CCc1c2c(nc3ccc(O)cc13)-c1cc3c(c(=O)n1C2)COC(=O)[C@]3(O)CC + CN1CCN(c2cc(C(=O)Nc3cc4cc(-c5cnn(C)c5)ccc4cn3)ccn2)CC1 ? Criterion met

Criterion: viability, T/C strictly below 60%. Is it met by CCCS(=O)(=O)Nc1ccc(F)c(C(=O)c2c[nH]c3ncc(-c4ccc(Cl)cc4)cc23)c1F + CNC(=O)c1ccc(Nc2nc(OC3CCCC3)c3c(-c4ccc5nc(C)oc5c4)c[nH]c3n2)c(OC)c1 ? Criterion not met

Criterion: viability, T/C strictly below 60%. Is it met by CC(=O)O[C@H]1C(=O)[C@@]2(C)[C@H]([C@H](OC(=O)c3ccccc3)[C@]3(O)C[C@H](OC(=O)[C@H](O)[C@@H](NC(=O)c4ccccc4)c4ccccc4)C(C)=C1C3(C)C)[C@]1(OC(C)=O)CO[C@@H]1C[C@@H]2O + CNC(=O)c1ccc(Nc2nc(OC3CCCC3)c3c(-c4ccc5nc(C)oc5c4)c[nH]c3n2)c(OC)c1 ? Criterion met

Criterion: viability, T/C strictly below 60%. Is it met by C#Cc1c(F)ccc2cc(O)cc(-c3ncc4c(N5CC6CCC(C5)N6)nc(OCC56CCCN5CC(F)C6)nc4c3F)c12 (stereo not given) + CN1CCN(c2cc(C(=O)Nc3cc4cc(-c5cnn(C)c5)ccc4cn3)ccn2)CC1 ? Criterion not met
